Molecular target: Sodium-dependent dopamine transporter (Homo sapiens); note: assay procedure not described here
Sequence (Q01959 whole entry): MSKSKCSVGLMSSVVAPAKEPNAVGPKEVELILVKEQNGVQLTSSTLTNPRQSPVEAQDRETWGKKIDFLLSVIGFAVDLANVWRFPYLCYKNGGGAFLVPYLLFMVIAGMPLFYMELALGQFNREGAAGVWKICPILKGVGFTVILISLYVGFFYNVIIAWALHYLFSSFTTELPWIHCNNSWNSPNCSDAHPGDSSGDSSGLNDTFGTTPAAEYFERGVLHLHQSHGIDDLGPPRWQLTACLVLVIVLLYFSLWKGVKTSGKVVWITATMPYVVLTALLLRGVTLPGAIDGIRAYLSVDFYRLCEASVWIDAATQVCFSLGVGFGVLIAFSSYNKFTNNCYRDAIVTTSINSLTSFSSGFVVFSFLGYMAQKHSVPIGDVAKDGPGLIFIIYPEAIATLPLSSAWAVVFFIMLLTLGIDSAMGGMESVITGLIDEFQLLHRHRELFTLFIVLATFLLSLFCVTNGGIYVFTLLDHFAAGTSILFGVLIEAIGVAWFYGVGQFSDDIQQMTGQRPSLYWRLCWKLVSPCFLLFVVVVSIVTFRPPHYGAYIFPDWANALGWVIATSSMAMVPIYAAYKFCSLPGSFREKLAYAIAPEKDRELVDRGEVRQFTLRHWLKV
// AC50 lookup, one value per entry
quantity measured: AC50

1. CC[C@@H]([C@H](C)O)n1ncn(-c2ccc(N3CCN(c4ccc(OC[C@@H]5CO[C@@](Cn6cncn6)(c6ccc(F)cc6F)C5)cc4)CC3)cc2)c1=O: > 30 µM
2. CC(CCc1ccccc1)NCC(O)c1ccc(O)c(C(N)=O)c1 (configuration not stated): 2.22 µM
3. CN1CCCCC1CCN1c2ccccc2Sc2ccc([S+](C)[O-])cc21 (configuration not stated): 19.8 µM
4. CCOC(=O)N1CSC[C@H]1C(=O)O: > 30 µM
5. CN(C)[C@@H]1C(O)=C(C(N)=O)C(=O)[C@@]2(O)C(O)=C3C(=O)c4c(O)ccc(Cl)c4[C@@](C)(O)[C@H]3C[C@@H]12: > 30 µM
6. C[N+](C)(C)C[C@H](O)CC(=O)[O-]: > 30 µM
7. CCC(=O)O[C@]1(C(=O)CCl)[C@@H](C)C[C@H]2[C@@H]3C[C@H](F)C4=CC(=O)C=C[C@]4(C)[C@@]3(F)[C@@H](O)C[C@@]21C [HALOBETASOL PROPIONATE]: > 30 µM

====

// AC50 lookup, one value per entry
Molecular target: Histamine H3 receptor (Homo sapiens); note: assay procedure not described here
Sequence (Q9Y5N1 whole entry): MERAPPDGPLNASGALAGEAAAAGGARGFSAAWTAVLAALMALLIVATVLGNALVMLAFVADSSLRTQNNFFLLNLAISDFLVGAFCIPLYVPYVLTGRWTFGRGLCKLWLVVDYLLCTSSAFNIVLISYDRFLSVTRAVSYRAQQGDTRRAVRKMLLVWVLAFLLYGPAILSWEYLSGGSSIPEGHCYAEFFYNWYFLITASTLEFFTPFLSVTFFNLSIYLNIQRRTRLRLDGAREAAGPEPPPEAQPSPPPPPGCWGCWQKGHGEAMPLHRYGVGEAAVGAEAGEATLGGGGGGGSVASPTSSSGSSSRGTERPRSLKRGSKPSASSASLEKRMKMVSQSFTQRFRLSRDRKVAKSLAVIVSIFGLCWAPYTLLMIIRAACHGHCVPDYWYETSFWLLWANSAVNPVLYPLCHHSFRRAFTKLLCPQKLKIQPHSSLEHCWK
quantity measured: AC50

1. CCCCCCCCCCCCCCCCCCCCCC(=O)Nc1ccn([C@@H]2O[C@H](CO)[C@@H](O)[C@@H]2O)c(=O)n1: > 30 µM
2. CC(=O)OCC(=O)[C@@]1(O)[C@H](C)C[C@H]2[C@@H]3CCC4=CC(=O)C=C[C@]4(C)[C@@]3(F)[C@@H](O)C[C@@]21C [DEXAMETHASONE ACETATE]: > 10 µM
3. O=C(O)c1ccccc1Nc1cc(Cl)ccc1C(=O)O: > 30 µM
4. C#C[C@]1(OC(C)=O)CC[C@H]2[C@@H]3CCC4=C/C(=N/O)CC[C@@H]4[C@H]3CC[C@@]21CC [NORGESTIMATE]: > 30 µM

====

This section lists AC50 readings for UniProtKB P21731.
Sequence (P21731 whole entry): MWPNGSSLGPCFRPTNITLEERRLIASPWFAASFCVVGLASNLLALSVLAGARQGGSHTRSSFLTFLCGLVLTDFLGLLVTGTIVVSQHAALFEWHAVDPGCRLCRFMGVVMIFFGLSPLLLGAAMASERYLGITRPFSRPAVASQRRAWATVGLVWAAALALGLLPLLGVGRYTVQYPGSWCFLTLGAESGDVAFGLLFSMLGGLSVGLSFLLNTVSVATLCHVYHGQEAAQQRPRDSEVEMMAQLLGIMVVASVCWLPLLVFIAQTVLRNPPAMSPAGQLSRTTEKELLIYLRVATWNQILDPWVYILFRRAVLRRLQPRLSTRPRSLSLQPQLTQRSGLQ
quantity measured: AC50

1) CCC1(c2ccccc2)CCC(=O)NC1=O (stereo not drawn) [GLUTETHIMIDE]: > 10 µM
2) O=C(O)c1ccccc1Nc1cc(Cl)ccc1C(=O)O: > 30 µM
3) CC1(C)S[C@@H]2[C@H](NC(=O)[C@H](N)c3ccccc3)C(=O)N2[C@H]1C(=O)OCOC(=O)[C@@H]1N2C(=O)C[C@H]2S(=O)(=O)C1(C)C: > 30 µM
4) COc1cc2c(cc1OC)C(CCc1ccc(Cl)cc1)N(C)CC2 (stereo not drawn): > 30 µM
5) CC(=O)O[C@]1(C(C)=O)CC[C@H]2[C@@H]3C=C(C)C4=CC(=O)CC[C@@H]4[C@H]3CC[C@@]21C [NOMEGESTROL ACETATE]: > 30 µM
6) CCOC(=O)c1cncn1[C@H](C)c1ccccc1 [ETOMIDATE]: > 10 µM
7) CCOC(=O)C1=C[C@]2(CC)CCCN3CCc4c(n1c1ccccc41)[C@@H]32: > 30 µM
8) CCN(CC)CCNC(=O)c1cc(S(C)(=O)=O)ccc1OC [TIAPRIDE]: > 30 µM

====

This section lists AC50 readings for D(3) dopamine receptor (Homo sapiens, UniProt P35462).
quantity measured: AC50

1) C[C@]1(Cn2ccnn2)[C@H](C(=O)O)N2C(=O)C[C@H]2S1(=O)=O: > 30 µM
2) NC(=O)OCC(O)COc1ccc(Cl)cc1 (centres undefined) [CHLORPHENESIN CARBAMATE]: > 30 µM
3) FC(F)(F)c1ccc(CNc2ccc(Cc3c[nH]c4ncc(Cl)cc34)cn2)cn1: 10.2 µM
4) Cc1cc(N)c2ccccc2[n+]1CCCCCCCCCC[n+]1c(C)cc(N)c2ccccc21: 0.0798 µM
5) CC(C)Cc1ccc(C(C)C(=O)O)cc1 (centres undefined): > 30 µM
6) CC(C(=O)O)c1ccc(-c2ccccc2)c(F)c1 (centres undefined): > 30 µM
7) COc1cc2c(cc1OC)CC(=O)N(CCCN(C)C[C@H]1Cc3cc(OC)c(OC)cc31)CC2: 2.61 µM
8) CCOC(=O)c1c(C)cc2c(CO)n[nH]c(=O)c2c1C [OXAGRELATE]: > 30 µM
9) CCOC(=O)C1=C[C@@H](OC(CC)CC)[C@H](NC(C)=O)[C@@H](N)C1: > 30 µM
